Species: Homo sapiens
Experiment: Inhibition of alpha chymotrypsin (unknown origin) at 25 uM using Ac-GRPY-pNA by spectrophotometry method
Bridge positions count the residues as written; N and C are the ends. Peptide text beside a SMILES is read from it.
endpoint: inhibition (%)
The response must be a number in % with no trailing unit.

Prompt: Supply inhibition value. Item: CC[C@H](C)[C@@H]1NC(=O)[C@@H]2CCCN2C(=O)[C@@H]2CCCN2C(=O)[C@H](Cc2c[nH]c3ccccc23)NC(=O)[C@H](CO)NC(=O)[C@H](CCCNC(=N)N)NC(=O)[C@H]([C@@H](C)O)NC(=O)[C@@H]2CSSC[C@H](NC1=O)C(=O)N[C@@H](CC(N)=O)C(=O)N1CCC[C@H]1C(=O)N[C@@H](CC(N)=O)C(=O)NCC(=O)N[C@@H]([C@@H](C)O)C(=O)N2 (cyclo(CNPNGTCTRSWPPI); disulfide 1-7)
Response: 63
